Source of measurements: ChEMBL document CHEMBL4346672

test system: Candida albicans; assay: Antifungal activity against Candida albicans ATCC 90028 assessed as diameter of zone inhibition incubated for 24 hrs by CLSI disc diffusion method; format: functional; for DIZ: test concentration or dose not given here
Calls of active or inactive are those of the source. No cut-off for these calls is given here.

Mol | diameter of the inhibition zone (DIZ)
C[Si]1(C)OB(O)c2cc(F)c(CO)c(F)c21 | inactive
C[Si]1(C)OB(O)c2c(C=O)cc(F)c(F)c21 | 11 mm
C[Si]1(C)OB(O)c2c(F)c(F)c(F)c(F)c21 | 15 mm
C[Si]1(C)OB(O)c2ccc(C(F)(F)F)cc21 | 14 mm
C[Si]1(C)OB(O)c2ccccc21 | inactive
C[Si]1(C)OB(O)c2ccc(F)c(F)c21 | 15 mm
C[Si]1(C)OB(O)c2cc(F)c(C=O)c(F)c21 | inactive
C[Si]1(C)OB(O)c2cccc(Br)c21 | 17 mm
C[Si]1(C)OB(O)c2cc(B(O)O)cc(F)c21 | inactive
C[Si]1(C)OB(O)c2cccc(B(O)O)c21 | inactive
C[Si]1(C)OB(O)c2ccc(Cl)cc21 | 28 mm

----------
Examples of molecules with documented diameter of the inhibition zone (DIZ) follow.
test system: Staphylococcus epidermidis; assay: Antibacterial activity against Staphylococcus epidermidis ATCC 12228 assessed as diameter of zone inhibition measured after 18 hrs by CLSI disc diffusion method; type: functional
Measured Endpoint: diameter of the inhibition zone (DIZ) (mm)

Mol | Measured Endpoint | Numeric Value
C[Si]1(C)OB(O)c2ccc(F)cc21 | diameter of the inhibition zone (DIZ) | 26
C[Si]1(C)OB(O)c2cccc(F)c21 | diameter of the inhibition zone (DIZ) | 39
C[Si]1(C)OB(O)c2c(F)c(F)c(F)c(F)c21 | diameter of the inhibition zone (DIZ) | 17

----------
tested on: Bordetella bronchiseptica; assay: Antibacterial activity against Bordetella bronchiseptica ATCC 4617 measured after 18 hrs by CLSI broth dilution method; type: functional; settings: ATCC 4617, 18 h

Mol | MIC
C[Si]1(C)OB(O)c2ccc(C=O)c(F)c21 | > 400 µg/mL
C[Si]1(C)OB(O)c2ccc(F)cc21 | > 400 µg/mL
C[Si]1(C)OB(O)c2ccccc21 | > 200 µg/mL
C[Si]1(C)OB(O)c2cc(F)c(CO)c(F)c21 | > 400 µg/mL

----------
tested on: Stenotrophomonas maltophilia; test: Antibacterial activity against Stenotrophomonas maltophilia ATCC 13637 measured after 18 hrs by CLSI broth dilution method; type: functional; settings: ATCC 13637, 18 h

Mol | Test Target | MIC
C[Si]1(C)OB(O)c2ccc(C=O)c(F)c21 | Stenotrophomonas maltophilia | > 400 µg/mL
C[Si]1(C)OB(O)c2ccccc21 | Stenotrophomonas maltophilia | > 200 µg/mL
C[Si]1(C)OB(O)c2cccc(B(O)O)c21 | Stenotrophomonas maltophilia | > 400 µg/mL
C[Si]1(C)OB(O)c2cc(F)c(C=O)c(F)c21 | Stenotrophomonas maltophilia | > 400 µg/mL
C[Si]1(C)OB(O)c2cc(C=O)cc(F)c21 | Stenotrophomonas maltophilia | > 400 µg/mL
C[Si]1(C)OB(O)c2cc(B(O)O)cc(F)c21 | Stenotrophomonas maltophilia | > 400 µg/mL

----------
assay: Dissociation constant, pKa1 of compound in 0.1 M NaOH by potentiometric analysis; format: physicochemical
Examples of compounds with documented pKa follow.
Measured Endpoint: pKa

Mol | Numeric Value
C[Si]1(C)OB(O)c2cc3c(c(F)c21)[Si](C)(C)OB3O | 5.9
C[Si]1(C)OB(O)c2ccc(F)c(F)c21 | 6.1
C[Si]1(C)OB(O)c2ccc(Cl)c(Cl)c21 | 6
